B1: Pistol ribozyme (parent)
chain: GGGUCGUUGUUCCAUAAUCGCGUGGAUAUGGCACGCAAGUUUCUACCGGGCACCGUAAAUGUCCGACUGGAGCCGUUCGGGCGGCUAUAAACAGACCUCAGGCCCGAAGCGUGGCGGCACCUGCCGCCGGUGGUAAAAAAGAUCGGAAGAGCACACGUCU

Variants of: B1
Experiment: aptazyme ON/OFF ratio, guanine; higher = stronger switching; co-transcriptional cleavage with and without guanine
quantity.name: aptazyme ON/OFF ratio

INSERT INTO assay_data (sequence_change, observed_result) VALUES
  ('U8C G9U U10G U11G C12A', 1.22),
  ('U8G G9C U10C', 1.08),
  ('U7G G9C U10C U11G C12U C13U', 1.34),
  ('U7A U8G U11A C12A C13G', 1.3),
  ('U7C G9U U10C U11A C12U C13A', 1.13),
  ('U7G U8G U11G C12U C13U', 1.37),
  ('U7C U8G U10A U11C C13U', 1.01),
  ('U7A U8A G9A U10G C12G C13A', 1.06),
  ('U7A U8G G9C U11A C12A', 1.73),
  ('U7C G9C U10C U11C C13G', 1.04),
  ('U7A U8A G9C U11A C12U', 1.2),
  ('U7C U8A G9U U10C C12U C13U', 1.13),
  ('U7G U8G G9U U10G U11G', 1.81),
  ('U7G U10A U11G C13A', 1.16),
  ('U7G U8G G9A U10G U11G C13U', 1.22),
  ('U7G U8G U10C U11A C12G C13G', 1.23),
  ('U8A G9A U10G U11A C12A C13U', 1.25),
  ('U8G U11A C12A C13G', 1.14);
